So I've got a bunch of compounds here, and I need their AC50 values.
system: HMLE_sh_eGFP viability, CellTiter-Glo luminescence, 72 h; experiment: cytotoxicity in HMLE control line with eGFP shRNA, dose response, counter-screen for HMLE_sh_ECad selective toxicity project, cell-based, HMLE_sh_eGFP, luminescence (AID 463074);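 further: counterscreen control line to flag general toxicity for the HMLE_sh_ECad screen; potency for loss of viability as luminescence drops below DMSO wells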

Task: For the compound COc1ccc(-c2sc3cc4c(cc3c2C#CC2(N)CCCCC2)OCO4)cc1 , give its measured AC50 value.
Result: 1.91 µM

Task: For the compound Clc1ccc(-c2nnc(-c3ccccc3)c(-c3ccccc3)n2)cc1 , give its measured AC50 value.
Result: 3.69 µM

Task: For the compound CCOC(=O)c1c(C)oc2c(F)c(F)c(F)c(F)c2c1=O , give its measured AC50 value.
Result: 2.02 µM

Task: For the compound CC(C)C[C@H](CO)N(Cc1ccccc1)S(=O)(=O)N(Cc1ccccc1)[C@@H](CO)CC(C)C , give its measured AC50 value.
Result: 3.49 µM

Task: For the compound COc1ccc(C(=O)/C=C/c2ccc(N3CCCCC3)c([N+](=O)[O-])c2)c(OC)c1 , give its measured AC50 value.
Result: 6.6 µM

Task: For the compound Cc1cc(Nc2cccc(F)c2)nc(-c2ccccc2O)n1 , give its measured AC50 value.
Result: 6.41 µM

Task: For the compound COc1cc(SC#N)ccc1N=Cc1c(C)[nH]n(-c2ccc(C)c(C)c2)c1=O , give its measured AC50 value.
Result: 4.52 µM

Task: For the compound O=C(Nc1ccc(S(=O)(=O)N2CCOCC2)cc1)c1cc(-c2cc(Cl)ccc2O)n[nH]1 , give its measured AC50 value.
Result: 2.18 µM

Task: For the compound COc1cc(/C=C/c2ccc3cccc(OC)c3n2)c(OC(C)=O)c([N+](=O)[O-])c1 , give its measured AC50 value.
Result: 16.2 µM

Task: For the compound CC(=O)NC(c1cc(Cl)c2cccnc2c1O)C1CC1 (stereo not given) , give its measured AC50 value.
Result: 9.04 µM
